Can you tell me pD2 for the items I'm about to list?
Tgt: T1, human C5L2 (human, UniProt Q9P296 1-337)
T1 construct: Expressed on stably transfected RBL-2H3 cells, on transiently or stably transfected HEK 293 cells, and endogenously on HSF cells; also called C5L2 receptor
Assay remarks: competition with 50 pM 125I-C3a on C5L2-transfected RBL cells, 4 C

Consider the following illustrative entries.
[
  {
    "Binder": "recombinant C4a (ligand, UniProt P0C0L4 680-756, looked up, domain: C4a; Expressed and purified under non-denaturing conditions) NVNFQKAINEKLGQYASPTAKRCCQDGVTRLPMMRSCEQRAARVQQPDCREPFLSCCQFAESLRKKSRDKGQAGLQR",
    "pD2": "6.31 -log IC50"
  },
  {
    "Binder": "recombinant C4a des-Arg^77 (ligand, UniProt P0C0L4 680-755, looked up, domain: C4a des-Arg^77; Expressed and purified under non-denaturing conditions; also called C4adR^77) NVNFQKAINEKLGQYASPTAKRCCQDGVTRLPMMRSCEQRAARVQQPDCREPFLSCCQFAESLRKKSRDKGQAGLQ",
    "pD2": "6.75 -log IC50"
  },
  {
    "Binder": "recombinant His6-tagged C5a des-Arg^74 (ligand, UniProt P01031 678-750, looked up, domain: C5a des-Arg^74; also called C5adR^74; not shown: His6 tag) TLQKKIEEIAAKYKHSVVKKCCYDGACVNNDETCEQRAARISLGPRCIKAFTECCVVASQLRANISHKDMQLG",
    "pD2": "< 3 -log IC50"
  }
]

Kindly review the next binder as well.
Query :: Return the recorded pD2 value; entry: recombinant His6-tagged C5a (ligand, UniProt P01031 678-751, looked up, domain: C5a; Expressed and purified under denaturing conditions; not shown: His6 tag) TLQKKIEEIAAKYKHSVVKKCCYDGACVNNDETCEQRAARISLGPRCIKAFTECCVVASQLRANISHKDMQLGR
Result :: 6.53 -log IC50
